test: Photophysical property of the compound assessed as fluorescence quantum yield at 10 uM by UV-Visible spectrophotometric analysis; format: physicochemical
reported.metric: Activity
No unit in the answer, please; the number alone is enough.

// below: answered compounds
INSERT INTO assay_data (structure_as_smiles, measured_result) VALUES
  ('COc1cc(-c2c3nc(cc4[nH]c(c(-c5cc(OC)c(OCCCCC(=O)O)c(OC)c5)c5nc(cc6[nH]c2c2cc7ccccc7cc62)-c2cc6ccccc6cc2-5)c2cc5ccccc5cc42)-c2cc4ccccc4cc2-3)cc(OC)c1OCCCCC(=O)O', 0.05),
  ('CC(C)(C)c1cc(-c2c3nc(cc4[nH]c(c(-c5cc(C(C)(C)C)c(OCCCCC(=O)O)c(C(C)(C)C)c5)c5nc(cc6[nH]c2c2cc7ccccc7cc62)-c2cc6ccccc6cc2-5)c2cc5ccccc5cc42)-c2cc4ccccc4cc2-3)cc(C(C)(C)C)c1OCCCCC(=O)O', 0.06),
  ('O=C(O)CCCCOc1cc(OCCCCC(=O)O)cc(-c2c3nc(cc4[nH]c(c(-c5cc(OCCCCC(=O)O)cc(OCCCCC(=O)O)c5)c5nc(cc6[nH]c2c2cc7ccccc7cc62)-c2cc6ccccc6cc2-5)c2cc5ccccc5cc42)-c2cc4ccccc4cc2-3)c1', 0.11),
  ('O=C(O)CCCCCCOc1cc(OCCCCCCC(=O)O)cc(-c2c3nc(cc4[nH]c(c(-c5cc(OCCCCCCC(=O)O)cc(OCCCCCCC(=O)O)c5)c5nc(cc6[nH]c2c2cc7ccccc7cc62)-c2cc6ccccc6cc2-5)c2cc5ccccc5cc42)-c2cc4ccccc4cc2-3)c1', 0.12),
  ('COc1cc(-c2c3nc(cc4[nH]c(c(-c5cc(OC)c(OCCCCCC(=O)O)c(OC)c5)c5nc(cc6[nH]c2c2cc7ccccc7cc62)-c2cc6ccccc6cc2-5)c2cc5ccccc5cc42)-c2cc4ccccc4cc2-3)cc(OC)c1OCCCCCC(=O)O', 0.1);

Documented Activity of COc1cc(-c2c3nc(cc4[nH]c(c(-c5cc(OC)c(OCCCC(=O)O)c(OC)c5)c5nc(cc6[nH]c2c2cc7ccccc7cc62)-c2cc6ccccc6cc2-5)c2cc5ccccc5cc42)-c2cc4ccccc4cc2-3)cc(OC)c1OCCCC(=O)O : 0.07

Documented Activity of O=C(O)COc1cc(OCC(=O)O)cc(-c2c3nc(cc4[nH]c(c(-c5cc(OCC(=O)O)cc(OCC(=O)O)c5)c5nc(cc6[nH]c2c2cc7ccccc7cc62)-c2cc6ccccc6cc2-5)c2cc5ccccc5cc42)-c2cc4ccccc4cc2-3)c1 : 0.11

Documented Activity of O=C(O)CCCOc1cc(OCCCC(=O)O)cc(-c2c3nc(cc4[nH]c(c(-c5cc(OCCCC(=O)O)cc(OCCCC(=O)O)c5)c5nc(cc6[nH]c2c2cc7ccccc7cc62)-c2cc6ccccc6cc2-5)c2cc5ccccc5cc42)-c2cc4ccccc4cc2-3)c1 : 0.09

Documented Activity of COc1cc(-c2c3nc(cc4[nH]c(c(-c5cc(OC)c(OCC(=O)O)c(OC)c5)c5nc(cc6[nH]c2c2cc7ccccc7cc62)-c2cc6ccccc6cc2-5)c2cc5ccccc5cc42)-c2cc4ccccc4cc2-3)cc(OC)c1OCC(=O)O : 0.09

Documented Activity of O=C(O)CCCCCOc1cc(OCCCCCC(=O)O)cc(-c2c3nc(cc4[nH]c(c(-c5cc(OCCCCCC(=O)O)cc(OCCCCCC(=O)O)c5)c5nc(cc6[nH]c2c2cc7ccccc7cc62)-c2cc6ccccc6cc2-5)c2cc5ccccc5cc42)-c2cc4ccccc4cc2-3)c1 : 0.15
